- assayed_system: Neuronal acetylcholine receptor; alpha3/beta4 (Homo sapiens, UniProt P30926+P32297)
- Sequence (P30926 whole entry): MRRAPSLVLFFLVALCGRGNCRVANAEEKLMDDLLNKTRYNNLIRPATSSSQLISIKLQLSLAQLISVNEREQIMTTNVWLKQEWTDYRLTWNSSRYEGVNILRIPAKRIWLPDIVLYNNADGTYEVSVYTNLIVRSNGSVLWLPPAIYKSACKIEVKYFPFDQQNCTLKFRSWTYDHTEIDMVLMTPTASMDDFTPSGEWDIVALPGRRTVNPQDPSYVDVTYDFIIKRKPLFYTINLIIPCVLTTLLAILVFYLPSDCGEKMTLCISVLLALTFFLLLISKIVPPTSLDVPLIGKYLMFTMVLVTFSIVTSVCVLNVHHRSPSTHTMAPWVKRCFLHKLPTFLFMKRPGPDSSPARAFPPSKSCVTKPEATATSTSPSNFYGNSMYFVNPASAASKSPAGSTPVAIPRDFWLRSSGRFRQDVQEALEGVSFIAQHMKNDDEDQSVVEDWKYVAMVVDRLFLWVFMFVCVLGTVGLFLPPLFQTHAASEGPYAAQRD
- Sequence (P32297 whole entry): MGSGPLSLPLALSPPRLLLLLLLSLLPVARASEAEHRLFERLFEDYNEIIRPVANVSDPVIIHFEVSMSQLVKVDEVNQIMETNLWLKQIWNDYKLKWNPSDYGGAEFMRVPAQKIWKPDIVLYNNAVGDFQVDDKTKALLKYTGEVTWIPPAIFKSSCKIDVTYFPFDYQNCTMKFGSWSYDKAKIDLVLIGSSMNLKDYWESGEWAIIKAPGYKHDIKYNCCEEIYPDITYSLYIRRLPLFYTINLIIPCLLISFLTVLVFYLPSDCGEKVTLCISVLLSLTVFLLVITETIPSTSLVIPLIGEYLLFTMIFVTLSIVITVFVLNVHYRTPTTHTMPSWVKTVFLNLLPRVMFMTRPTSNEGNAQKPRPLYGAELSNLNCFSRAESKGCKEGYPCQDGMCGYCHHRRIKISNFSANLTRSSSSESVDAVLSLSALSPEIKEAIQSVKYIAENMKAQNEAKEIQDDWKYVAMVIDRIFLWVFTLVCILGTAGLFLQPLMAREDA
- method_summary: Displacement of [3H]-epibatidine from human alpha3beta4 nACh receptor expressed in HEK293 cells preincubated for 5 mins followed by radioligand addition by beta counting analysis
pKi: −log10 of the molar value.
Classify by measured pKi: yes (1) if it is equal to or exceeds 7, no (0) if it is smaller.

# chemical_structure, class
rows = [
    ("Brc1cccc(C2=NCCCC2)c1", "yes (1)"),
    ("Oc1cccc(C2=NCCCC2)c1", "no (0)"),
    ("c1ccc(C2=NCCCC2)cc1", "no (0)"),
    ("Fc1cc(Br)cc(C2=NCCCC2)c1", "yes (1)"),
    ("Ic1cccc(C2=NCCCC2)c1", "yes (1)"),
]
